Entry source: the supplement of paper PMC4466140

Biological target: AgSla1-D3
Assay: SPOT peptide array binding signal intensity (averaged, normalized) (arbitrary units (background-subtracted, floor 0; scale differs between SH3 domains)); higher = stronger binding of the SH3 domain to the peptide
MEASURED ENDPOINT: SPOT peptide array binding signal intensity
A bare number is all that is needed in reply.

Example entries begin here.
{"BINDER": "RSVKRPRRAPRPVVS", "ASSAY RESULT": 6.25}
{"BINDER": "AVPPPPPPPPLPESL", "ASSAY RESULT": 2}

// SPOT peptide array binding signal intensity lookup, binder = MARRRLPDRPPNGIG , result: 16.5

Record summary for VATSTSPKLPPRGKQ : reported SPOT peptide array binding signal intensity = 1.5
